Target: HIV protease (Human immunodeficiency virus type 1 group M subtype B)
Construct: A third viral enzyme known as protease then cleaves the polyproteins
Test: Enzymatic Assay for Determining the Inhibition Constant (Ki) of Synthetic Compounds Targeting the HIV Protease (fluorometric FRET assay)
Type: biochemical
pKi: −log10 of the molar value.
Use Criterion met when the recorded pKi is no lower than 8; use Criterion not met when it is lower.

Solved cases below.
I'd appreciate it if you could say whether CSCC[C@H](NC(=O)OC(C)(C)C)C(=O)NCCCC[C@@H](C(=O)O)N(CC(C)C)S(=O)(=O)c1ccc(C)cc1 has pKi at least equal to 8.
Criterion not met

I'd appreciate it if you could say whether CC(C)CN([C@@H](CCCCNC(=O)[C@H](Cc1ccccc1)NS(=O)(=O)c1cccs1)C(=O)O)S(=O)(=O)c1ccc(N)cc1 has pKi at least equal to 8.
Criterion met

I'd appreciate it if you could say whether COc1ccc(S(=O)(=O)N(CC(C)C)[C@H](CO)CCCCNC(=O)[C@H](Cc2c[nH]c3ccccc23)NC(C)=O)cc1 has pKi at least equal to 8.
Criterion not met

I'd appreciate it if you could say whether CC(C)CN([C@H](CO)CCCCNC(=O)[C@H](Cc1ccccc1)NS(=O)(=O)c1ccc(N)cc1)S(=O)(=O)c1ccc(N)cc1 has pKi at least equal to 8.
Criterion not met

Now consider the entry below.
I'd appreciate it if you could say whether Cc1ccc(S(=O)(=O)N(CC(C)C)[C@@H](CCCCNC(=O)[C@H](CC(N)=O)NC(=O)C(C)(C)C)C(=O)O)cc1 has pKi at least equal to 8.
Criterion not met

====

Molecular target: HIV protease (Human immunodeficiency virus type 1 group M subtype B, UniProt P04585)
Construct: A third viral enzyme known as protease then cleaves the polyproteins
Test: Enzymatic Assay for Determining the Inhibition Constant (Ki) of Synthetic Compounds Targeting the HIV Protease (fluorometric FRET assay)
Type: biochemical
outcome.measure: log10(Ki) (log10 of the value in nM)
The base-10 logarithm of Ki, taken with Ki in nM, is what appears here.

Consider the following illustrative entries.
Give its log10(Ki) value. Item: Cc1ccc(S(=O)(=O)NC(Cc2c[nH]c3ccccc23)C(=NC#N)NCCCCC(C(=O)O)N(CC(C)C)S(=O)(=O)c2ccc(C)cc2)cc1 (centres unmarked)
0.04

Give its log10(Ki) value. Item: COc1ccc(CC(=O)N[C@@H](Cc2c[nH]c3ccccc23)C(=O)NCCCC[C@@H](CO)N(CC(C)C)S(=O)(=O)c2ccc(C)cc2)cc1
0.04

Give its log10(Ki) value. Item: Cc1ccc(S(=O)(=O)N[C@@H](Cc2ccccc2)C(=S)NCCCC[C@@H](C(=O)O)N(CC(C)C)S(=O)(=O)c2ccc(C)cc2)cc1
1.52

Give its log10(Ki) value. Item: CC(C)CN([C@@H](CCCCNC(=O)[C@H](Cc1c[nH]c2ccccc12)NS(=O)(=O)c1ccc(N)cc1)C(=O)O)S(=O)(=O)c1ccc(N)cc1
-0.34

More entries:
Give its log10(Ki) value. Item: COc1cccc(CNCC(=O)NCCCC[C@@H](C(=O)O)N(CC(C)C)S(=O)(=O)c2ccc(C)cc2)c1OC
1.72

Give its log10(Ki) value. Item: Cc1ccc(S(=O)(=O)N(CC(C)C)[C@H](CO)CCCCNC(=O)[C@H](Cc2ccccc2F)NC(=O)OC(C)(C)C)cc1
1.00

Give its log10(Ki) value. Item: Cc1ccc(S(=O)(=O)N(CC(C)C)[C@@H](CCCCNC(=O)[C@H](Cc2ccccc2)NC(=O)C(F)(F)F)C(=O)O)cc1
0.46

====

Target: HIV protease (Human immunodeficiency virus type 1 group M subtype B, UniProt P04585)
Construct: A third viral enzyme known as protease then cleaves the polyproteins
Experiment: Enzymatic Assay for Determining the Inhibition Constant (Ki) of Synthetic Compounds Targeting the HIV Protease (fluorometric FRET assay)
Format: biochemical
Details: Anti-protease activity of Ne-amino acid substituted L-lysine derivatives and analogs of formula I; read-out: Ki
Recorded pKi by entry
pKi is defined as minus the log10 of a concentration measured in mol/L.

Lab request: please report pKi under test system HIV protease (Human immunodeficiency virus type 1 group M subtype B, UniProt P04585) for Cc1ccc(S(=O)(=O)N(CC(=O)NCCCC[C@@H](C(=O)O)N(CC(C)C)S(=O)(=O)c2ccc(C)cc2)CC(C)C)cc1
7.85

More entries:
Lab request: please report pKi under test system HIV protease (Human immunodeficiency virus type 1 group M subtype B, UniProt P04585) for Cc1ccc(S(=O)(=O)N(CC(C)C)[C@@H](CCCCNC(=O)[C@H](Cc2c[nH]c3ccccc23)NS(=O)(=O)c2ccc(N)cc2)C(=O)O)cc1
9.51

Lab request: please report pKi under test system HIV protease (Human immunodeficiency virus type 1 group M subtype B, UniProt P04585) for Cc1ccc(CSC[C@H](NC(=O)OC(C)(C)C)C(=O)NCCCC[C@@H](C(=O)O)N(CC(C)C)S(=O)(=O)c2ccc(C)cc2)cc1
7.21

Lab request: please report pKi under test system HIV protease (Human immunodeficiency virus type 1 group M subtype B, UniProt P04585) for Cc1ccc(S(=O)(=O)N(CC(C)C)[C@@H](CCCCNC(=O)[C@H](CO)NC(=O)OCC2c3ccccc3-c3ccccc32)C(=O)O)cc1
6.79

Lab request: please report pKi under test system HIV protease (Human immunodeficiency virus type 1 group M subtype B, UniProt P04585) for Cc1ccc(S(=O)(=O)N[C@@H](Cc2ccc([N+](=O)[O-])cc2)C(=O)NCCCC[C@@H](C(=O)O)N(CC(C)C)S(=O)(=O)c2ccc(C)cc2)cc1
8.59

====

Biological target: HIV protease (Human immunodeficiency virus type 1 group M subtype B, UniProt P04585)
Construct: A third viral enzyme known as protease then cleaves the polyproteins
Test: Enzymatic Assay for Determining the Inhibition Constant (Ki) of Synthetic Compounds Targeting the HIV Protease (fluorometric FRET assay)
Type: biochemical
Recorded pKi by entry
pKi is defined as minus the log10 of a concentration measured in mol/L.

Consider the following illustrative entries.
Give its pKi value. Item: Cc1ccc(S(=O)(=O)N(CC(C)C)[C@H](CO)CCCCNC(=O)[C@H](Cc2ccccc2)NS(=O)(=O)c2ccccc2)cc1
7.85

Give its pKi value. Item: Cc1ccc(CSC[C@H](N)C(=O)NCCCC[C@@H](C(=O)O)N(CC(C)C)S(=O)(=O)c2ccc(C)cc2)cc1
7.54

Give its pKi value. Item: Cc1ccc(S(=O)(=O)N(CC(C)C)[C@@H](CCCCNC(=O)[C@H](Cc2c[nH]c3ccccc23)NS(=O)(=O)c2ccccc2)C(N)=O)cc1
8.72

Give its pKi value. Item: CC(=O)N[C@@H](Cc1c[nH]c2ccccc12)C(=O)NCCCC[C@@H](CO)N(CC(C)C)S(=O)(=O)c1ccc(C)cc1
8.52

More entries:
Give its pKi value. Item: Cc1ccc(S(=O)(=O)N(CC(C)C)[C@@H](CCCCNC(=O)[C@H](Cc2ccc(OCc3ccccc3)cc2)NC(=O)OC(C)(C)C)C(=O)O)cc1
7.31

====

Target: HIV protease (Human immunodeficiency virus type 1 group M subtype B)
Construct: A third viral enzyme known as protease then cleaves the polyproteins
Test: Enzymatic Assay for Determining the Inhibition Constant (Ki) of Synthetic Compounds Targeting the HIV Protease (fluorometric FRET assay)
Assay type: biochemical
outcome.measure: pKi
pKi is defined as minus the log10 of a concentration measured in mol/L.

Consider the following illustrative entries.
Give its pKi value. Item: Cc1ccc(S(=O)(=O)N[C@@H](COCc2ccccc2)C(=O)NCCCC[C@@H](C(=O)O)N(CC(C)C)S(=O)(=O)c2ccc(C)cc2)cc1
8.10

Give its pKi value. Item: Cc1ccc(S(=O)(=O)N(CC(C)C)[C@@H](CCCCNC(=O)[C@H](Cc2ccccc2)NS(=O)(=O)c2ccc3ccccc3c2)C(=O)O)cc1
7.96

Give its pKi value. Item: Cc1ccc(S(=O)(=O)N[C@@H](CCC(=O)O)C(=O)NCCCC[C@@H](C(=O)O)N(CC(C)C)S(=O)(=O)c2ccc(C)cc2)cc1
6.66

More entries:
Give its pKi value. Item: CC(C)CN([C@H](CO)CCCCNC(=O)[C@H](Cc1c[nH]c2ccccc12)NC(=O)C(C)(C)C)S(=O)(=O)c1ccc(N)cc1
8.92

Give its pKi value. Item: Cc1ccc(S(=O)(=O)N[C@@H](CC(N)=O)C(=O)NCCCC[C@@H](C(=O)O)N(CC(C)C)S(=O)(=O)c2ccc(C)cc2)cc1
6.53

Give its pKi value. Item: COC(=O)N[C@@H](Cc1c[nH]c2ccccc12)C(=O)NCCCC[C@@H](CO)N(CC(C)C)S(=O)(=O)c1ccc(C)cc1
8.66

====

Target: HIV protease (Human immunodeficiency virus type 1 group M subtype B, UniProt P04585)
Construct: A third viral enzyme known as protease then cleaves the polyproteins
Assay: Enzymatic Assay for Determining the Inhibition Constant (Ki) of Synthetic Compounds Targeting the HIV Protease (fluorometric FRET assay)
Assay type: biochemical
outcome.measure: Ki (nM)
I only need the number, in nM, no unit after it.

Consider the following illustrative entries.
Give its Ki value. Item: Cc1ccc(S(=O)(=O)N(CC(C)C)[C@@H](CCCCNC(=O)[C@H](Cc2ccccc2)NC(=O)c2ccccc2)C(=O)O)cc1 [Example 50]
2

Give its Ki value. Item: Cc1ccc(S(=O)(=O)N(CC(C)C)[C@@H](CCCCNC(=O)[C@@H](N)Cc2c[nH]c3ccccc23)C(=O)O)cc1 [Example 93]
2.1

Give its Ki value. Item: CC(C)CN([C@H](CO)CCCCNC(=O)CN(Cc1ccccc1)c1ccccc1)S(=O)(=O)c1ccc(N)cc1 [Example 182]
2.4

Give its Ki value. Item: Cc1ccc(S(=O)(=O)N(CC(C)C)[C@H](CO)CCCCNC(=O)[C@H](Cc2cccnc2)NC(=O)OC(C)(C)C)cc1 [Example 135]
144

Could you now look at the following compound, please?
Give its Ki value. Item: COc1ccc(S(=O)(=O)N(CC2CCCC2)[C@H](CO)CCCCNC(=O)[C@H](Cc2c[nH]c3ccccc23)NC(C)=O)cc1 [Example 173]
11
